Assay system: Ras-related protein Rab-2A (Canis lupus familiaris) (UniProt P61105)
Protocol text: Rab2 wt fluorescent GTP binding changes, either direction – biochemical, dog, bead-based flow cytometry, multiplex, primary screen (AID 760);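 also: 0% = beads with excess unlabeled GTP and 100% = no-compound control corrected for plate trend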
Cond: GST-Rab2 wt beads, Bodipy-GTP binding, at 10 µM
Out of some 190,000 compounds screened, about 360 (0.19%) were called active. Another 2% or so got no clear call; they are omitted. This is one part of a sample in which actives are shown more often than they occur.
Assay metric: GTP binding activity (%)
Express the result in % but write the number alone.

Consider the reported GTP binding activity for these molecules:
- Molecule: "CCCCOc1ccc(N(CC(=O)NC(C)C)C(=O)CCC(=O)Nc2ccccn2)cc1"
  Unit abbrev: "%"
  GTP binding activity: 97
- Molecule: "CCOc1ccc(N2C(=O)CN(c3cccc4ccccc34)C2=S)cc1"
  Unit abbrev: "%"
  GTP binding activity: 99
- Molecule: "CCOC(=O)c1ccc(NC(=O)C2CC(=O)Nc3nc4ccccc4n32)cc1 (stereo unspecified)"
  Unit abbrev: "%"
  GTP binding activity: 94

For record COc1ccc(Cl)cc1N(CC(=O)N/N=C/c1ccc(OCC(N)=O)cc1)S(C)(=O)=O the listed GTP binding activity is 99

For record CCN1CCN(C(=O)CCN2C(=O)c3ccccc3C2=O)CC1 the listed GTP binding activity is 98

For record CCN(CC(=O)NC(=O)NCc1ccccc1)Cc1nc2ccccc2c(=O)[nH]1 the listed GTP binding activity is 101

For record S=C(NCc1ccc2c(c1)OCO2)NCc1ccco1 the listed GTP binding activity is 101

For record O=C(Cn1nnc2ccccc2c1=O)NCc1ccc(Cl)cc1 the listed GTP binding activity is 100

For record COc1ccc(/C=C/C2=CC(C)(C)NC(=S)N2)c(OC)c1 the listed GTP binding activity is 96

For record COc1ccc(CN2CCC(c3nc4ccc(Cl)cc4[nH]3)CC2)cc1 the listed GTP binding activity is 96

For record COC(=O)c1ccc(NC(=S)NN2CCOCC2)cc1 the listed GTP binding activity is 99

Reference source: PubChem BioAssay AID760
